PROCEDURE TEXT: recombinant UMI read abundance after kanamycin selection (control-corrected) (log10(CPM+1)); higher = more efficient recombination; extreme values may be limits of the assay; sequences stand for … in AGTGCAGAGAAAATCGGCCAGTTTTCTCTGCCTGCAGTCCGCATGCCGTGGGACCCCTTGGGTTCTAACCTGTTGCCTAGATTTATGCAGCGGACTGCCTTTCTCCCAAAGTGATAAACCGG…AGGTTGGTTTCACT; site = the 11-nt donor
// reported recombinant UMI read abundance (log10) per item
Quick one: just the number, no unit, thanks!

Here's what some known entries look like.
{"columns": ["MONOMER SEQUENCE", "PROPERTY LABEL", "REPORTED RESULT"],
 "data": [
  ["CCTGTTTCATGGACCGGTTTTCCCGGTAATCCGTATTTGAC (site CCTGTTTCTGT)", "recombinant UMI read abundance (log10)", 0],
  ["CTTGGAACATGGACCGGTTTTCCCGGTAATCCGTATTTGTT (site CATGGAACTAA)", "recombinant UMI read abundance (log10)", 0.791]
]}

**Query** What does the data say about its recombinant UMI read abundance (log10)? Entry: ACAGTGTCATGGACCGGTTTTCCCGGTAATCCGTATTTGAA (site ACAGTATCTTG)
**Result** 1.04

**Query** Same thing, different sequence: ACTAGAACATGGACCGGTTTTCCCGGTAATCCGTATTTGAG (site ACTAGAGCTCT)
**Result** 0.324

**Query** Now give it for CGGGATCCATGGACCGGTTTTCCCGGTAATCCGTATTTGCT (site CGGAATCCTAA) too.
**Result** 0.0224

----------
PROCEDURE TEXT: recombinant barcode read abundance after kanamycin selection (control-corrected) (log10(CPM+1)); higher = more efficient recombination; sequences stand for … in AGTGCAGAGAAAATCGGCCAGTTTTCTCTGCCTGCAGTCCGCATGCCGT…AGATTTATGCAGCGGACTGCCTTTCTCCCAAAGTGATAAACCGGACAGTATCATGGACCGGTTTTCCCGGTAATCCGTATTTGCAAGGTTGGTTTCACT; site = the 11-nt target
PROPERTY LABEL: recombinant barcode read abundance (log10)
Note: the reply should be a number with no unit written.

Answered examples (2):
{"columns": ["MONOMER SEQUENCE", "REPORTED RESULT"],
 "data": [
  ["GTGAGGACTTGGGTTCTAACCTGTTGCGT (site GTGAGGACTAC)", 3.11],
  ["GAAACTGCTTGGGTTCTAACCTGTTGCCT (site GAGACTGCTAG)", 0.158]
]}

**Query** Need recombinant barcode read abundance (log10), item AAGTTAGCTTGGGTTCTAACCTGTTGCGG (site AAGTTAGCTCC)
**Result** 2.28

**Query** # repeat for TAACGTACTTGGGTTCTAACCTGTTGCTT (site TAACGTACTAA)
**Result** 0.641

**Query** Same lookup for ATTGGATCTTGGGTTCTAACCTGTTGCCT (site ATTGGCTCTAG) , please.
**Result** 0.0247

----------
Listing: recombinant UMI read abundance (log10) of selected sequences
PROCEDURE TEXT: recombinant UMI read abundance after kanamycin selection (control-corrected) (log10(CPM+1)); higher = more efficient recombination; extreme values may be limits of the assay; sequences stand for … in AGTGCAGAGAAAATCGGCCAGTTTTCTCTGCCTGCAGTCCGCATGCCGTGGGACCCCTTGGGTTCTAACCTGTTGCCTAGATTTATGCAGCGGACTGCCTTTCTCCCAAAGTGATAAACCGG…AGGTTGGTTTCACT; site = the 11-nt donor

{"columns": ["MONOMER SEQUENCE", "recombinant UMI read abundance (log10)"],
 "data": [
  ["TCATACGCATGGACCGGTTTTCCCGGTAATCCGTATTTGCA (site TCATACTCTTG)", 0.604],
  ["TCATACTCATGGACCGGTTTTCCCGGTAATCCGTATTTGCA (site TCATATTCTTG)", 0],
  ["CAAGCTGCATGGACCGGTTTTCCCGGTAATCCGTATTTGCT (site CAAGCCGCTAG)", 0.95],
  ["TTAGCCGCATGGACCGGTTTTCCCGGTAATCCGTATTTGTG (site TTAGCCGCTCA)", 0.564],
  ["AGCCTAGCATGGACCGGTTTTCCCGGTAATCCGTATTTGAT (site AGCCTAGCTAG)", 0],
  ["CGACTAACATGGACCGGTTTTCCCGGTAATCCGTATTTGGA (site CAACTAACTTC)", 1.44],
  ["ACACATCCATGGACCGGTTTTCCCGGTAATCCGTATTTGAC (site ACACACCCTGT)", 0.501],
  ["GGAGTGTCATGGACCGGTTTTCCCGGTAATCCGTATTTGGT (site GGAGTGGCTAC)", 0.0122],
  ["TTTGCGGCATGGACCGGTTTTCCCGGTAATCCGTATTTGGT (site TTTGCGGCTAC)", 0.0146],
  ["CGTTGTCCATGGACCGGTTTTCCCGGTAATCCGTATTTGCT (site CGTTGTCCTAG)", 0.968]
]}

**Query** Given the entry GGAGTAGCATGGACCGGTTTTCCCGGTAATCCGTATTTGGT (site GGAGTCGCTAC) , report its measured recombinant UMI read abundance (log10).
**Result** 0.0165

**Query** Same again, this time with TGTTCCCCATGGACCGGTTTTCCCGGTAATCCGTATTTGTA (site TGTTTCCCTTA)
**Result** 0.381

**Query** Cool, now CATGTAACATGGACCGGTTTTCCCGGTAATCCGTATTTGCT (site GATGTAACTAG)
**Result** 0.28

**Query** Try this sequence next: CTACTCCCATGGACCGGTTTTCCCGGTAATCCGTATTTGGC (site CTACTCCCTGC)
**Result** 1.59

**Query** Would you kindly repeat that for GACTCTGCATGGACCGGTTTTCCCGGTAATCCGTATTTGCT (site GACTCTGCTAG) ?
**Result** 1.3

**Query** Same again, this time with CCCATCTCATGGACCGGTTTTCCCGGTAATCCGTATTTGTC (site CCCATGTCTGA)
**Result** 0

**Query** Same again, this time with CCGTTGTCATGGACCGGTTTTCCCGGTAATCCGTATTTGTC (site CCGTTGTCTGA)
**Result** 0

**Query** Another sequence to look at: TCCTAATCATGGACCGGTTTTCCCGGTAATCCGTATTTGTC (site TCCTAATCTGA)
**Result** 0

**Query** What do we get for CTACGCACATGGACCGGTTTTCCCGGTAATCCGTATTTGAG (site CTACGCACTCT) ?
**Result** 1.29

**Query** Next sequence: CAGAAGACATGGACCGGTTTTCCCGGTAATCCGTATTTGCA (site AGGAAGACTTG)
**Result** 0.401

----------
PROCEDURE TEXT: recombinant barcode read abundance after kanamycin selection (control-corrected) (log10(CPM+1)); higher = more efficient recombination; sequences stand for … in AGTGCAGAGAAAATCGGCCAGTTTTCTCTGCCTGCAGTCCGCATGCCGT…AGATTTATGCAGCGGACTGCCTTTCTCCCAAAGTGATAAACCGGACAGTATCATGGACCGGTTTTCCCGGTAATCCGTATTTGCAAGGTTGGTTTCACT; site = the 11-nt target
recombinant barcode read abundance (log10) listing for selected sequences.
Please give the numeric answer without any surrounding text.

# annotated cases, reported recombinant barcode read abundance (log10) shown
{"columns": ["MONOMER SEQUENCE", "REPORTED RESULT"],
 "data": [
  ["CGGTACACTTGGGTTCTAACCTGTTGCGG (site CGGAACACTCC)", 0.862],
  ["AAACCACCTTGGGTTCTAACCTGTTGCCT (site AAACCACCTAG)", 1.49],
  ["GGGTAATCTTGGGTTCTAACCTGTTGCCT (site GGGTAATCTAG)", 0.725],
  ["CGGGGTTCTTGGGTTCTAACCTGTTGCCT (site CGGGGTTCTAG)", 2.43]
]}

# context switch: different sequence, same recombinant barcode read abundance (log10)
**Query** May I ask what recombinant barcode read abundance (log10) has been recorded for TGTTGTTCTTGGGTTCTAACCTGTTGCCT (site TGTTGTTCTAG) ?
**Result** 0.0851

----------
PROCEDURE TEXT: recombinant barcode read abundance after kanamycin selection (control-corrected) (log10(CPM+1)); higher = more efficient recombination; sequences stand for … in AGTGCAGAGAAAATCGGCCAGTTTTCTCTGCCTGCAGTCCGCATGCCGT…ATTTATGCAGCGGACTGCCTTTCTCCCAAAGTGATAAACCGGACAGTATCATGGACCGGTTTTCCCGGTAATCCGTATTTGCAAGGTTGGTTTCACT; site = the 11-nt target
# recombinant barcode read abundance (log10) per entry

Worked examples, 4 sequences total:
{"columns": ["MONOMER SEQUENCE", "REPORTED RESULT"],
 "data": [
  ["TTATAAATGTGGGTTCTAACCTGTTGCCTAG [TTATAAACTAG_LTGcore_TG_RTGcore_CT] (site TTATAAACTAG) (LTG core: TG, RTG core: CT)", 0.083],
  ["AAACAGTCTTGGGTTCTAACCTGTTGCCTCG [AAACAGTCTAG_LTGcore_CT_RTGcore_CG] (site AAACAGTCTAG) (LTG core: CT, RTG core: CG)", 1.3],
  ["CATATTACTTGGGTTCTAACCTGTTGCCTAA [CATATTACTAG_LTGcore_CT_RTGcore_TT] (site CATATTACTAG) (LTG core: CT, RTG core: TT)", 0.105],
  ["TAAGAATATTGGGTTCTAACCTGTTGCCTAG [TAAGAATCTAG_LTGcore_AT_RTGcore_CT] (site TAAGAATCTAG) (LTG core: AT, RTG core: CT)", 0.124]
]}

**Query** Could you share which recombinant barcode read abundance (log10) value was measured for TGTATTCAGTGGGTTCTAACCTGTTGCCTAG [TGTATTCCTAG_LTGcore_AG_RTGcore_CT] (site TGTATTCCTAG) (LTG core: AG, RTG core: CT) ?
**Result** 0.0134

**Query** Note, next up: GAGTCCTGCTGGGTTCTAACCTGTTGCCTAG [GAGTCCTCTAG_LTGcore_GC_RTGcore_CT] (site GAGTCCTCTAG) (LTG core: GC, RTG core: CT)
**Result** 0.0703

**Query** Now consider CATATTACTTGGGTTCTAACCTGTTGCCTCT [CATATTACTAG_LTGcore_CT_RTGcore_AG] (site CATATTACTAG) (LTG core: CT, RTG core: AG) and answer again.
**Result** 0.0539

**Query** Now give it for CATATTATTTGGGTTCTAACCTGTTGCCTAA [CATATTACTAG_LTGcore_TT_RTGcore_TT] (site CATATTACTAG) (LTG core: TT, RTG core: TT) too.
**Result** 0.0172

**Query** For TGTATTCCATGGGTTCTAACCTGTTGCCTTG [TGTATTCCTAG_LTGcore_CA_RTGcore_CA] (site TGTATTCCTAG) (LTG core: CA, RTG core: CA) then?
**Result** 0.579

**Query** Further, for AAACACAACTGGGTTCTAACCTGTTGCCTGT [AAACACACTAG_LTGcore_AC_RTGcore_AC] (site AAACACACTAG) (LTG core: AC, RTG core: AC) ?
**Result** 0.0446

**Query** Item: TTATAAACTTGGGTTCTAACCTGTTGCCTTT [TTATAAACTAG_LTGcore_CT_RTGcore_AA] (site TTATAAACTAG) (LTG core: CT, RTG core: AA)
**Result** 0.0604
